tested on: biosynthesis of PGE2; assay: Production of PGE2 in LPS-stimulated mouse peritoneal cells; type: cell-based; conditions: Mus musculus, 5 h, compound 50 μmol·l^−1, with LPS 10 ng/ml, 5 hours; LPS alone = 100%; low values = strong inhibition; read-out: PGE2 remaining activity in % of LPS response (mean ± SEM)
Exercise: for every item that follows, state its recorded activity at 50 µM.
Units required after the number.

The cases that follow already have their activity at 50 µM on record.
givenSmiles	activity at 50 µM
CCCCc1c(-c2ccccc2)nc(N)nc1-c1ccc(OCc2ccccc2)c(F)c1F	0.03%
Nc1nc(-c2ccccc2)cc(-c2ccc(OCc3ccccc3)cc2)n1	0.7%
CCCCc1c(-c2ccccc2)nc(N)nc1-c1ccc(OCc2cccc3ccccc23)cc1	26.3%
CCCCc1c(-c2ccc(OCc3ccccc3)cc2)nc(N)nc1-c1cccc(Cl)c1	12.6%
CCCCc1c(-c2ccccc2)nc(N)nc1-c1ccc(OCc2ccc(OC)cc2)cc1	2%

Give me activity at 50 µM for each of these molecules, listed below.
1. Nc1nc(-c2ccccc2)cc(-c2ccc(OCc3ccccc3)c(F)c2F)n1
2. COc1ccc(COc2ccc(-c3cc(-c4ccccc4)nc(N)n3)cc2)cc1
3. CCCCc1c(-c2ccccc2)nc(N)nc1-c1ccc(OCc2ccc(Cl)cc2)cc1

Result:
["5.5%", "8.4%", "0.7%"]
